test: Tmax in Sprague-Dawley rat at 20 mg/kg, iv by LC-MS/MS analysis; format: ADME, organism-based; conditions: in vivo
experimental endpoint: Tmax (min)
Numbers only, in min.

Give me Tmax for each of these compounds, listed below.
1. CN(C)C1CCN(C(=O)c2ccc(NC(=O)Nc3ccc(-c4nc(N5CCOCC5)nc(N5CCOCC5)n4)cc3)cc2)CC1 [GEDATOLISIB]
2. NC(=O)[C@@H]1CCCN1C(=O)c1ccc(NC(=O)Nc2ccc(-c3nc(N4CCOCC4)nc(N4CCOCC4)n3)cc2)cc1

[1.8, 1.8]

----------
test system: MDA-MB-231; experiment: Antiproliferative activity against human MDA-MB-231 cells assessed as reduction in cell viability incubated for 48 hrs by MTT assay; format: functional, cell-based; conditions: MDA-MB-231, 48 h
experimental endpoint: pIC50
Answers are plain numbers, as −log10 of the molar value.

The following compounds have reported results that may help.
NC(=O)[C@@H]1CCCN1C(=O)c1ccc(NC(=O)Nc2ccc(-c3cc(N4CCOCC4)nc(N4CCOCC4)n3)cc2)cc1    4.95
C[C@@H]1COCCN1c1nc(-c2ccc(NC(=O)Nc3ccc(C(=O)N4CCC[C@H]4C(N)=O)cc3)cc2)nc(N2CCOCC2)n1    5.89
NC(=O)[C@H]1CCCN1C(=O)c1ccc(NC(=O)Nc2ccc(-c3nc(N4CCOCC4)nc(N4CCOCC4)n3)cc2)cc1    5.13
CN(C)[C@@H]1C[C@@H](C(N)=O)N(C(=O)c2ccc(NC(=O)Nc3ccc(-c4nc(N5CCOCC5)nc(N5CCOCC5)n4)cc3)cc2)C1    4.84

Give me pIC50 for each of these compounds, listed below.
1. COC(=O)[C@@H]1C[C@@H](O)CN1C(=O)c1ccc(NC(=O)Nc2ccc(-c3nc(N4CCOCC4)nc(N4CCOCC4)n3)cc2)cc1
2. O=C(Nc1ccc(C(=O)N2CCCC2C(=O)O)cc1)Nc1ccc(-c2nc(N3CCOCC3)nc(N3CCOCC3)n2)cc1 (configuration not stated)
3. CN(C)C1CCN(C(=O)c2ccc(NC(=O)Nc3ccc(-c4nc(N5CCOCC5)nc(N5C[C@@H]6OCCO[C@H]6C5)n4)cc3)cc2)CC1

6.37
4.54
5.72

----------
molecular target: Phosphatidylinositol 4,5-bisphosphate 3-kinase catalytic subunit alpha isoform (Homo sapiens); test: Inhibition of PI3Kalpha (unknown origin) using PIP2 as substrate in presence of ATP incubated for 60 mins by ADP-glo based luminescence assay
Sequence (P42336 whole entry, canonical isoform): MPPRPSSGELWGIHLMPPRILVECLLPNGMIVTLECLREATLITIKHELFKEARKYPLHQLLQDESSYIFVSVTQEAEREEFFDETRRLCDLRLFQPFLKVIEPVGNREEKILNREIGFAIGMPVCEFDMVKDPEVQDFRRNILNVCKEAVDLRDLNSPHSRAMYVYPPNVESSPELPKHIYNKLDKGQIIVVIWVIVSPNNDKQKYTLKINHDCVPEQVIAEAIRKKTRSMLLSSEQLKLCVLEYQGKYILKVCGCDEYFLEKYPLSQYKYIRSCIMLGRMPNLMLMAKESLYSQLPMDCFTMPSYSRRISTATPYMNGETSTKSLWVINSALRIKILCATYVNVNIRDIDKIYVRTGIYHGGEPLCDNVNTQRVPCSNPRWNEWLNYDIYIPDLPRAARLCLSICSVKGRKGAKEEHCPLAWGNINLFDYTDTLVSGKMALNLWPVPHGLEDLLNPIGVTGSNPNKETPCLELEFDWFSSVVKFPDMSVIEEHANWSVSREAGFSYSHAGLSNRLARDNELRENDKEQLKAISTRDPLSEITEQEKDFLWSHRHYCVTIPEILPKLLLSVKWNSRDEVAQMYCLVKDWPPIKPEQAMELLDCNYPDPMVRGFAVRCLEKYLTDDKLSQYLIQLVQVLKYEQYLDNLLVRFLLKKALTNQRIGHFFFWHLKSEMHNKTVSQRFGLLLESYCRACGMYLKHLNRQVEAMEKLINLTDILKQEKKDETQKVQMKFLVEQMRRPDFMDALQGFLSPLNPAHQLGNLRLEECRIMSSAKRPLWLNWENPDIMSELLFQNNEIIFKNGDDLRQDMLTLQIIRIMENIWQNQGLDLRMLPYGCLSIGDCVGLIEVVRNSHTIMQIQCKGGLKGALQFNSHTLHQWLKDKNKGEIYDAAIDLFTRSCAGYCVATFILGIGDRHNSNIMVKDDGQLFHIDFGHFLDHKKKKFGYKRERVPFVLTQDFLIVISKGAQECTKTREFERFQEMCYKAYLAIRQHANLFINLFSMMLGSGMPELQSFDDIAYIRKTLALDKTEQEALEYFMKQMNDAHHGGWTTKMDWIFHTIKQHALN
Lab note - cut at 6 nM for IC50: 1 (yes) if strictly below, 0 (no) if not.

NC(=O)C1CCCN(C(=O)c2ccc(NC(=O)Nc3ccc(-c4nc(N5CCOCC5)nc(N5CCOCC5)n4)cc3)cc2)C1 (centres undefined)    1 (yes)
NC(=O)[C@@H]1CC(O)CN1C(=O)c1ccc(NC(=O)Nc2ccc(-c3nc(N4CCOCC4)nc(N4CCOCC4)n3)cc2)cc1 (some centres undefined)    1 (yes)
NC(=O)[C@@H]1CCCN1C(=O)c1ccc(NC(=O)Nc2ccc(-c3nc(N4CCOCC4)nc(N4C[C@@H]5OCCO[C@H]5C4)n3)cc2)cc1    1 (yes)
NC(=O)[C@@H]1CCCN1C(=O)c1ccc(NC(=O)Nc2ccc(-c3cc(N4CCOCC4)ncn3)cc2)cc1    0 (no)
NC(=O)[C@H]1CCCN1C(=O)c1ccc(NC(=O)Nc2ccc(-c3nc(N4CCOCC4)nc(N4CCOCC4)n3)cc2)cc1    1 (yes)
NC(=O)C1CCCCN1C(=O)c1ccc(NC(=O)Nc2ccc(-c3cc(N4CCOCC4)nc(N4CCOCC4)n3)cc2)cc1 (centres undefined)    0 (no)
C[C@H]1COCCN1c1nc(-c2ccc(NC(=O)Nc3ccc(C(=O)N4CCC(C(N)=O)CC4)cc3)cc2)nc(N2CCOCC2)n1    1 (yes)
C[C@@H](NC(=O)c1ccc(NC(=O)Nc2ccc(-c3nc(N4CCOCC4)nc(N4CCOCC4)n3)cc2)cc1)C(N)=O    1 (yes)

Identify whether the compound `CN(C)C1CCN(C(=O)c2ccc(NC(=O)Nc3ccc(-c4cc(N5CCOCC5)nc(N5CCOCC5)n4)cc3)cc2)CC1` records IC50 below 6 nM.
0 (no)

Identify whether the compound `CN(C)[C@H]1C[C@@H](C(N)=O)N(C(=O)c2ccc(NC(=O)Nc3ccc(-c4nc(N5CCOCC5)nc(N5CCOCC5)n4)cc3)cc2)C1` records IC50 below 6 nM.
0 (no)

Identify whether the compound `NC(=O)[C@@H]1CCCN1C(=O)c1ccc(NC(=O)Nc2ccc(-c3nc(N4CCOCC4)nc(N4CCOCC4)n3)cc2)cc1` records IC50 below 6 nM.
1 (yes)

Identify whether the compound `C[C@H](NC(=O)c1ccc(NC(=O)Nc2ccc(-c3nc(N4CCOCC4)nc(N4CCOC[C@@H]4C)n3)cc2)cc1)C(N)=O` records IC50 below 6 nM.
1 (yes)

Identify whether the compound `NC(=O)[C@@H]1CCCN1C(=O)c1ccc(NC(=O)Nc2ccc(-c3cc(N4CCOCC4)nc(N4CCOCC4)n3)cc2)cc1` records IC50 below 6 nM.
0 (no)

Identify whether the compound NC(=O)C1CCCCN1C(=O)c1ccc(NC(=O)Nc2ccc(-c3nc(N4CCOCC4)nc(N4CCOCC4)n3)cc2)cc1 (centres undefined) records IC50 below 6 nM.
1 (yes)

The measurements presented in this section are drawn from ChEMBL document CHEMBL5046253.
